Where a name gives a salt, the structure may show the parent alone.
The entries below come with measured melting point values attached.

{"molecule": "NCCc1c[nH]c2ccc3c(=O)n(Cc4ccccc4F)ccc3c12 (as salt: hydrochloride)", "melting point": "> 250 °C"}
{"molecule": "CN(CCc1c[nH]c2ccc3c(=O)[nH]ccc3c12)Cc1ccccc1 (as salt: hydrochloride)", "melting point": "152 to 155 °C"}
{"molecule": "NCCc1c(Br)[nH]c2ccc3c(=O)[nH]ccc3c12 (as salt: HBr)", "melting point": "252 °C (dec.)"}
{"molecule": "Cn1ccc2c(ccc3[nH]cc(CCN)c32)c1=O (as salt: hydrochloride)", "melting point": "295 to 298 °C"}

----------
study-target: human cloned 5-HT6 receptors (Homo sapiens)
Construct: expressed in transfected cells; host or cells: HeLa cells (membrane preparation)
assay-remarks: Comparative evaluation of 5-HT6 binding affinity ([3H]-LSD displacement, Hela cell membranes)
applied-conditions: [3H]-LSD displacement, membranes of Hela cells expressing human cloned 5-HT6 receptors; read-out: 5-HT6 binding Ki
Procedure: Comparative Evaluation of 5-HT6 Binding Affinity of Test Compounds The affinity of test compounds for the 5-HT6 receptor is evaluated in the following manner. […] The final pellet is suspended in a small volume of Tris.HCl buffer, and the tissue protein content is determined in aliquots of 10-25 microliter volumes. […] Specific binding to eh 5-HT6 receptor is defined as the total radioactivity bound less the amount bound in the presence of […] unlabelled methiothipin. […]
pKi: −log10 of the molar value.

{"molecule": "O=c1[nH]ccc2c3c(ccc12)N=CC3CCNCc1ccccc1 (stereo not shown)", "pKi": 7.82}

----------
study-target: human cloned 5-HT6 receptors (Homo sapiens, UniProt P50406)
Construct: expressed in transfected cells; host or cells: HeLa cells (membrane preparation)
Sequence (P50406 whole entry): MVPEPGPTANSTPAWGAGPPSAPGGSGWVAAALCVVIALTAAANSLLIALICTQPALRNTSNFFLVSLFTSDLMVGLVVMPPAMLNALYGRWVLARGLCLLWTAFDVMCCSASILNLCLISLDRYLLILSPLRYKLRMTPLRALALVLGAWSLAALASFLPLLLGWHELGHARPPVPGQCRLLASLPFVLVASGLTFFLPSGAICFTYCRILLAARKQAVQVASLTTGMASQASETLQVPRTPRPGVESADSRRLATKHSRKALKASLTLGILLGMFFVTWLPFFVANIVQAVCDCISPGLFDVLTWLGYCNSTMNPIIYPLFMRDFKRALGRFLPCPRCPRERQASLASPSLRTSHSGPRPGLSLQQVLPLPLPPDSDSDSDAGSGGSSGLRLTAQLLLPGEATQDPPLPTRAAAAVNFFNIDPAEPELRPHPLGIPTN
assay-remarks: Comparative evaluation of 5-HT6 binding affinity ([3H]-LSD displacement, Hela cell membranes)
pKi: −log10 of the molar value.

{"compound": "Cn1ccc2c(ccc3[nH]cc(CCN)c32)c1=O [Example 94]", "pKi": 7.74}
{"compound": "NCCc1c[nH]c2ccc3c(=O)n(Cc4ccccc4)ccc3c12 [Example 182]", "pKi": 7.96}
{"compound": "NCCc1c[nH]c2ccc3c(=O)n(CC4CCCCC4)ccc3c12 [Example 269]", "pKi": 7.89}
{"compound": "NCCc1c[nH]c2ccc3c(=O)n(Cc4ccccc4)cnc3c12 [Example 1029]", "pKi": 7.49}
{"compound": "CNCCc1c[nH]c2ccc3c(=O)[nH]ccc3c12 [Example 1021]", "pKi": 7.68}
{"compound": "NCCc1c[nH]c2ccc3c(=O)n(Cc4ccsc4)ccc3c12 [Example 274]", "pKi": 7.96}

----------
The entries below come with measured melting point values attached.
Structures can show the parent of a compound that is named as a salt.

{"compound": "O=c1c2ccc3[nH]cc(CCNS(=O)(=O)c4ccccc4)c3c2ccn1Cc1ccccc1", "melting point": "205 to 206 °C"}
{"compound": "Cn1cnc2c(ccc3[nH]cc(CCN)c32)c1=O", "melting point": "279 to 285 °C"}
{"compound": "NCCc1c(-c2ccc(Cl)cc2)[nH]c2ccc3c(=O)[nH]ccc3c12 (as salt: hydrochloride)", "melting point": "> 300 °C"}
{"compound": "NCCc1c[nH]c2ccc3c(=O)[nH]ccc3c12 (as salt: hydrochloride)", "melting point": "> 280 °C"}
{"compound": "NCCCc1c[nH]c2ccc3c(=O)[nH]ccc3c12 (as salt: hydrochloride)", "melting point": "225 to 230 °C"}
{"compound": "CNCCc1c[nH]c2ccc3c(=O)[nH]ccc3c12 (as salt: HCl)", "melting point": "160 °C"}
{"compound": "Cn1ccc2c(ccc3[nH]cc(CCNCCc4ccccc4)c32)c1=O (as salt: HCl)", "melting point": "205 to 208 °C"}
{"compound": "NCCc1c[nH]c2ccc3c(=O)n(CCc4ccccc4)ccc3c12 (as salt: hydrochloride)", "melting point": "162 to 166 °C"}

These entries and their values trace back to patent US20070099911A1.
